Consider the following compounds and their measured pIC50 readings.
system name: androgen receptor (AR) (Homo sapiens, UniProt P10275, T878A)
Construct: LNCaP cells expressing ARR2PB-FireflyLuc and CMV-RenillaLuc; endogenous in cells; host or cells: LNCaP cells carrying ARR2PB-FireflyLuc and CMV-RenillaLuc reporters
test summary: AR reporter assay in LNCaP cells expressing ARR2PB-FireflyLuc and CMV-RenillaLuc, antagonist mode (% remaining activity, IC50)
Format: cell-based
test context: 48 h at 37° C., class symbols A-D, read-out: IC50
pIC50: −log10 of the molar value.

Would you please look over these solved cases?
O=c1[nH]ccc2nc(-c3n[nH]c4cc(F)c(F)cc34)ccc12 [Compound 28]
6.00 to 7.00
Cc1nc(-c2c[nH]c3c(Cl)cccc23)cnc1OC1CCNC1 (centres unmarked) [Compound 296]
> 7.00
c1ccc(-c2cc(-c3ccc4c(n3)CCCN4)n[nH]2)cc1 [Compound 81]
< 5.00
CC1(C)c2nc(-c3c[nH]c4c(C#N)cccc34)ccc2C(=O)N1C1CCOC1 (centres unmarked) [Compound 158]
< 5.00
Cc1nc(-c2c[nH]c3c(C#N)cccc23)ccc1NC(C)C(=O)N(C)C (centres unmarked) [Compound 191]
5.00 to 6.00

Problem: What measured pIC50 is associated with Fc1cc2[nH]nc(-c3ccc4c(n3)OCCN4)c2cc1F [Compound 69] on androgen receptor (AR) (Homo sapiens, UniProt P10275, T878A)?
Solution: < 5.00

Problem: What measured pIC50 is associated with Fc1ccc(-c2c[nH]c3cccnc23)nc1 [Compound 201] on androgen receptor (AR) (Homo sapiens, UniProt P10275, T878A)?
Solution: 5.00 to 6.00

Problem: What measured pIC50 is associated with N#Cc1cc(F)cc2c(-c3ccc4ccc(F)cc4n3)c[nH]c12 [Compound 204] on androgen receptor (AR) (Homo sapiens, UniProt P10275, T878A)?
Solution: 6.00 to 7.00

Problem: What measured pIC50 is associated with c1ccc2c(-c3ccc4c(n3)CNCC4)n[nH]c2c1 [Compound 20] on androgen receptor (AR) (Homo sapiens, UniProt P10275, T878A)?
Solution: < 5.00

Problem: What measured pIC50 is associated with Cc1nc(-c2c[nH]c3c(C(F)(F)F)cccc23)cnc1OC1CCNC1 (centres unmarked) [Compound 198] on androgen receptor (AR) (Homo sapiens, UniProt P10275, T878A)?
Solution: 6.00 to 7.00

Problem: What measured pIC50 is associated with Cc1nc(-c2c[nH]c3c(C#N)cccc23)cnc1O[C@H]1CN[C@H](C)C1 [Compound 329] on androgen receptor (AR) (Homo sapiens, UniProt P10275, T878A)?
Solution: < 5.00

Problem: What measured pIC50 is associated with Cc1nc(-c2coc3ccccc23)cnc1OCC(C)(C)O [Compound 338] on androgen receptor (AR) (Homo sapiens, UniProt P10275, T878A)?
Solution: < 5.00

Problem: What measured pIC50 is associated with Cc1nc(-c2c[nH]c3c(C#N)c(F)ccc23)ccc1N [Compound 210] on androgen receptor (AR) (Homo sapiens, UniProt P10275, T878A)?
Solution: > 7.00

Problem: What measured pIC50 is associated with Cc1nc(-c2c[nH]c3c(C#N)cc(Cl)cc23)ccc1N [Compound 153] on androgen receptor (AR) (Homo sapiens, UniProt P10275, T878A)?
Solution: 5.00 to 6.00

Problem: What measured pIC50 is associated with Cc1nc(-c2c[nH]c3c(C#N)cccc23)ccc1N(C)C [Compound 148] on androgen receptor (AR) (Homo sapiens, UniProt P10275, T878A)?
Solution: > 7.00

Problem: What measured pIC50 is associated with Cc1nc(OC2C3CNCC32)cnc1-c1c[nH]c2c(C#N)cccc12 (centres unmarked) [Compound 225] on androgen receptor (AR) (Homo sapiens, UniProt P10275, T878A)?
Solution: < 5.00

Problem: What measured pIC50 is associated with Cc1nc(-c2c[nH]c3c(C#N)cccc23)cnc1OC1CNCC1(F)F (centres unmarked) [Compound 322] on androgen receptor (AR) (Homo sapiens, UniProt P10275, T878A)?
Solution: 5.00 to 6.00

Problem: What measured pIC50 is associated with CN1CCN(c2cccc(-c3n[nH]c4ccccc34)n2)CC1 [Compound 68] on androgen receptor (AR) (Homo sapiens, UniProt P10275, T878A)?
Solution: < 5.00

Problem: What measured pIC50 is associated with Fc1ccc(-c2n[nH]c3ncccc23)nc1 [Compound 116] on androgen receptor (AR) (Homo sapiens, UniProt P10275, T878A)?
Solution: 5.00 to 6.00

###

system name: androgen receptor (AR) (Homo sapiens, UniProt P10275, T878A)
Construct: LNCaP cells expressing ARR2PB-FireflyLuc and CMV-RenillaLuc; endogenous in cells; host or cells: LNCaP cells carrying ARR2PB-FireflyLuc and CMV-RenillaLuc reporters
Sequence (P10275 1-920 T878A): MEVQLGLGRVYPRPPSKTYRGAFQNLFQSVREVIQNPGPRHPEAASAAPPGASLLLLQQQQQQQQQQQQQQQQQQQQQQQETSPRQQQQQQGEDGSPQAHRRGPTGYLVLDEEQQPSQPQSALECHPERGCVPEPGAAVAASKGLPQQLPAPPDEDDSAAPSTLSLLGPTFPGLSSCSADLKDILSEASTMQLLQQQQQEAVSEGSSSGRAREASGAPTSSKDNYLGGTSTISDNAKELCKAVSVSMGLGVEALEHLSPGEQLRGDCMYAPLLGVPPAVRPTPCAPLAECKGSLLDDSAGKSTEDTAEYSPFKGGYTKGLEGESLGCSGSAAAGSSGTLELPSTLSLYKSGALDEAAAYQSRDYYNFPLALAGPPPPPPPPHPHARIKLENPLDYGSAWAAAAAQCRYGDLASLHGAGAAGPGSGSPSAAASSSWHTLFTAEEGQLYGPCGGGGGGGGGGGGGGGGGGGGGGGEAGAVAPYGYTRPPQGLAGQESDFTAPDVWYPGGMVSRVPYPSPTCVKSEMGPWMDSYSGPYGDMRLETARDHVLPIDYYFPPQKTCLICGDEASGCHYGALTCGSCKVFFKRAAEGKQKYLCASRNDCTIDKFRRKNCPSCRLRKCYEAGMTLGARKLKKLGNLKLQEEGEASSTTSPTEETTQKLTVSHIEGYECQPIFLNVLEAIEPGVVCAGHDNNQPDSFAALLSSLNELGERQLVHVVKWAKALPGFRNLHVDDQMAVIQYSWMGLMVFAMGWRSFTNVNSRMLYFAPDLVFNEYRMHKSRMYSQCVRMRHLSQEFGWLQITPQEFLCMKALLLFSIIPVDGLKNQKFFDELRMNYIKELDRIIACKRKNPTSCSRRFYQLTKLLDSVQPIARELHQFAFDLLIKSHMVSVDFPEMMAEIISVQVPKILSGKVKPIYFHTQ
test summary: AR reporter assay in LNCaP cells expressing ARR2PB-FireflyLuc and CMV-RenillaLuc, antagonist mode (% remaining activity, IC50)
Type: cell-based
test context: 48 h at 37° C., class symbols A-D, read-out: IC50
Consider the following compounds and their measured IC50 readings.

Would you please look over these solved cases?
N#Cc1cccc2c(-c3ccc(OC4CCNC4)c(C(F)(F)F)n3)c[nH]c12 (stereo not shown)
1 to 10 µM
Cc1ccc2c(-c3ccc(N)c(C)n3)c[nH]c2c1C#N
1 to 10 µM
Fc1cc2[nH]nc(-c3cc4c(cn3)NCCC4)c2cc1F
1 to 10 µM
Nc1ccc(-c2n[nH]c3cc(F)c(F)cc23)nc1C(F)(F)F
0.1 to 1 µM
c1ccc(-c2cc(-c3ccc4c(n3)CCCN4)n[nH]2)nc1
> 10 µM

Problem: Fill blank: measured IC50 of the compound NC1CCCc2nc(-c3n[nH]c4ccccc34)ccc21 (stereo not shown) is ____.
Solution: > 10 µM

Problem: Fill blank: measured IC50 of the compound `Cc1[nH]nc(-c2ccc3c(n2)CCCN3)c1C` is ____.
Solution: > 10 µM

Problem: Fill blank: measured IC50 of the compound `Fc1cc2[nH]nc(-c3ccc4cc(F)c(-c5nnco5)cc4n3)c2cc1F` is ____.
Solution: > 10 µM

Problem: Fill blank: measured IC50 of the compound COc1nc(-c2c[nH]c3c(C#N)cccc23)cnc1NC1CCN(C(C)=O)C1 (stereo not shown) is ____.
Solution: < 0.1 µM

Problem: Fill blank: measured IC50 of the compound CC(=O)N1CCC(Oc2ccc(-c3c[nH]c4c(C#N)cccc34)nc2C(F)(F)F)C1 (stereo not shown) is ____.
Solution: 0.1 to 1 µM

Problem: Fill blank: measured IC50 of the compound Cc1nc(-c2c[nH]c3c(C#N)cccc23)cnc1OC1CCCNC1 (stereo not shown) is ____.
Solution: > 10 µM

Problem: Fill blank: measured IC50 of the compound `Cc1nc(-c2c[nH]c3ncccc23)ccc1N` is ____.
Solution: 1 to 10 µM

Problem: Fill blank: measured IC50 of the compound `Fc1cc2[nH]nc(-c3ccc4c(n3)CCNC4)c2cc1F` is ____.
Solution: > 10 µM

Problem: Fill blank: measured IC50 of the compound Cc1nc(-c2c[nH]c3c(C#N)cccc23)cnc1OC1CCC(N)C1 (stereo not shown) is ____.
Solution: > 10 µM

Problem: Fill blank: measured IC50 of the compound `O=C1NCc2nc(-c3n[nH]c4ccccc34)ccc21` is ____.
Solution: 1 to 10 µM

Problem: Fill blank: measured IC50 of the compound `Cc1nc(-c2c[nH]c3c(C4CC4)cccc23)ccc1N` is ____.
Solution: 1 to 10 µM
